System: S. aureus
assayComment: Minimum Inhibitory Concentration (MIC) testing, terfenadine study
Format: cell-based
measurementSetup: Staphylococcus aureus, 16 h
Exercise: state measured MIC for each of the compounds provided.
Output spec: scalar in µg/mL, unitless text.

In: Kindly state the measured MIC obtained for CN(C)c1ccc(CCN2CCC(C(O)(c3ccccc3)c3ccccc3)CC2)cc1 with S. aureus.
Out: 256

In: Subsequent entry: OC(c1ccccc1)(c1ccccc1)C1CCN(CCc2ccc(Br)cc2)CC1
Out: 16

In: Subsequent entry: Nc1ccc(CCN2CCC(C(O)(c3ccccc3)c3ccccc3)CC2)cc1
Out: 256

In: Subsequent entry: CC(C)(C)c1ccc(C(=O)CCN2CCC(C(O)(c3ccccc3)c3ccccc3)CC2)cc1
Out: 32

In: Subsequent entry: O=[N+]([O-])c1ccc(CCN2CCC(C(O)(c3ccccc3)c3ccccc3)CC2)cc1
Out: 64

* * *

Exercise: state measured fold induction at 50 µM for each of the compounds provided.
Tested on: E. faecium
assayComment: AK assay 384-well format, Prestwick library screening
Type: cell-based, Enterococcus faecium
measurementSetup: Enterococcus faecium, 3 h; 50 μM final drug concentration; planktonic; cutoff for positive 3-fold increase; read-out: AK-based Prestwick Library Screening Results, E. faecium (fold increase in extracellular AK activity)
Where a name gives a salt, the structure may show the parent alone.
Field format: numeric only.

In: Kindly state the measured fold induction at 50 µM obtained for CN(C)Cc1c[nH]c2ccccc12 with E. faecium.
Out: 1

In: Subsequent entry: CCN(CC)CCOCCOC(=O)C1(c2ccccc2)CCCC1 [Carbetapentane citrate]
Out: 1

In: Subsequent entry: CC(=O)[C@H]1CC[C@H]2[C@@H]3CCC4=CC(=O)CC[C@]4(C)[C@H]3CC[C@]12C
Out: 1.1

In: Subsequent entry: O=C1NCCN1c1ncc([N+](=O)[O-])s1
Out: 1

In: Subsequent entry: c1ccc2[nH]c(-c3cscn3)nc2c1
Out: 0.5

In: Subsequent entry: CCc1oc2ccccc2c1C(=O)c1cc(Br)c(O)c(Br)c1
Out: 1.2

In: Subsequent entry: Nc1nc2ncc(CNc3ccc(C(=O)N[C@@H](CCC(=O)O)C(=O)O)cc3)nc2c(=O)[nH]1
Out: 1.1

In: Subsequent entry: CC(C)(CO)[C@@H](O)C(=O)NCCC(=O)O [calcium salt monohydrate]
Out: 1.1

In: Subsequent entry: CCOC(=O)[N-]c1cn(N2CCOCC2)n[o+]1
Out: 0.9

In: Subsequent entry: C[C@@H]1O[C@@H](O[C@H]2[C@H](Oc3cc(O)c4c(c3)O[C@H](c3ccc(O)cc3)CC4=O)O[C@H](CO)[C@@H](O)[C@@H]2O)[C@H](O)[C@H](O)[C@H]1O [Naringin hydrate]
Out: 1

In: Subsequent entry: Cc1cc(N)c2ccccc2[n+]1CCCCCCCCCC[n+]1c(C)cc(N)c2ccccc21 [Dequalinium dichloride]
Out: 1.1

In: Subsequent entry: CO[C@@]1(NC(=O)C2SC(=C(C(N)=O)C(=O)O)S2)C(=O)N2C(C(=O)O)=C(CSc3nnnn3C)CS[C@@H]21 (stereo partly shown)
Out: 1.2

In: Subsequent entry: CC(=O)Nc1c(I)c(C(=O)N[C@H]2C(O)O[C@H](CO)[C@@H](O)[C@@H]2O)c(I)c(N(C)C(C)=O)c1I (stereo partly shown) [Metrizamide]
Out: 1

In: Subsequent entry: CC(C)NCC(O)COc1ccc(CCOCC2CC2)cc1 (stereo not shown) [Betaxolol hydrochloride]
Out: 0.9

In: Subsequent entry: CCOC(=O)C1=C(C)NC(C)=C(C(=O)OC)C1c1cccc(Cl)c1Cl (stereo not shown)
Out: 1.3

In: Subsequent entry: C[C@H](CCC(=O)NCC(=O)O)[C@H]1CC[C@H]2[C@@H]3[C@H](O)C[C@@H]4C[C@H](O)CC[C@]4(C)[C@H]3C[C@H](O)[C@]12C
Out: 1.1

In: Subsequent entry: COc1ccc(OC)c(C(O)C(C)N)c1 (stereo not shown) [Methoxamine hydrochloride]
Out: 1

In: Subsequent entry: O=C(/C=C/C=C/c1ccc2c(c1)OCO2)N1CCCCC1
Out: 0.3

In: Subsequent entry: NC(Cn1ccc(=O)c(O)c1)C(=O)O (stereo not shown)
Out: 1

In: Subsequent entry: N=C(N)c1ccc(OCCCCCOc2ccc(C(=N)N)cc2)cc1 [Pentamidine isethionate]
Out: 1.4

In: Subsequent entry: NCc1ccccc1CC(=O)N[C@@H]1C(=O)N2C(C(=O)O)=C(CSc3nnnn3CC(=O)O)CS[C@H]12 [Ceforanide]
Out: 1

In: Subsequent entry: C=C[C@H]1C[N@@]2CC[C@H]1C[C@@H]2[C@@H](O)c1ccnc2ccccc12
Out: 1.1

In: Subsequent entry: CCc1cc(C(N)=S)ccn1 [Ethionamide]
Out: 1

In: Subsequent entry: CCCN(CCC)S(=O)(=O)c1ccc(C(=O)O)cc1
Out: 1

In: Subsequent entry: CC[C@@H]1C(=O)OC[C@@H]1Cc1cncn1C [Pilocarpine nitrate]
Out: 1.1

In: Subsequent entry: Cc1cccc(C)c1NC(=O)CN1CCN(CCCC(c2ccc(F)cc2)c2ccc(F)cc2)CC1
Out: 1

In: Subsequent entry: CC1=CC(=O)c2ccccc2C1=O
Out: 1.1

In: Subsequent entry: C[C@@H]1NCCc2cc(O)c(O)cc21 [Salsolinol hydrobromide]
Out: 1
